Attribution: the supplement of paper PMC6555819

Tested on: THRa:RXRa (NR concentration 90 nM, RXRa partner concentration 90 nM)
Test: PBM binding z-score (relative to random genomic background probes); higher = stronger binding; sequences stand for … in GC…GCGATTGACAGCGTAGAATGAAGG
Would you please tag the item true when its PBM binding z-score is 4 or above, and false when it is below?

q: Item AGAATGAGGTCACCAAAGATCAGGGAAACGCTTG with PBM binding z-score of 4 or above?
a: true

q: Item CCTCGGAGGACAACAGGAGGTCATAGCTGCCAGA with PBM binding z-score of 4 or above?
a: false

q: Item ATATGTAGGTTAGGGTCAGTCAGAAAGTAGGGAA with PBM binding z-score of 4 or above?
a: false

q: Item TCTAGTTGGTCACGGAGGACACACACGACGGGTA with PBM binding z-score of 4 or above?
a: false

q: Item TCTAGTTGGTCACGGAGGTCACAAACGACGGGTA with PBM binding z-score of 4 or above?
a: false

q: Item TCTAGTAGGTCAAAGGTCACACACTCGAAATGCG with PBM binding z-score of 4 or above?
a: true

q: Item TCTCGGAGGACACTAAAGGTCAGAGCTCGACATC with PBM binding z-score of 4 or above?
a: false

q: Item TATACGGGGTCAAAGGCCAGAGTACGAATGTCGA with PBM binding z-score of 4 or above?
a: true

###

Tested on: PPARg homodimer (NR concentration 180 nM)
Assay: PBM binding z-score (relative to random genomic background probes); higher = stronger binding; sequences stand for … in GC…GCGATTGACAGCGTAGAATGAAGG
Give measured PBM binding z-score for each item. Keep answers brief.
Please give the numeric answer without any surrounding text.

q: For the sequence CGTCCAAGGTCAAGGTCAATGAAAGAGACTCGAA , what PBM binding z-score is on record?
a: 4.82

q: For the sequence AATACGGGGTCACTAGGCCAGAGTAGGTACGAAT , what PBM binding z-score is on record?
a: 2.6

q: For the sequence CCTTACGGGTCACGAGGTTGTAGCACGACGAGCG , what PBM binding z-score is on record?
a: 3.19
